- target under test: Saccharomyces cerevisiae α-glucosidase (E.C 3.2.1.20) (Saccharomyces cerevisiae, UniProt P53341)
- Sequence (P53341 whole entry): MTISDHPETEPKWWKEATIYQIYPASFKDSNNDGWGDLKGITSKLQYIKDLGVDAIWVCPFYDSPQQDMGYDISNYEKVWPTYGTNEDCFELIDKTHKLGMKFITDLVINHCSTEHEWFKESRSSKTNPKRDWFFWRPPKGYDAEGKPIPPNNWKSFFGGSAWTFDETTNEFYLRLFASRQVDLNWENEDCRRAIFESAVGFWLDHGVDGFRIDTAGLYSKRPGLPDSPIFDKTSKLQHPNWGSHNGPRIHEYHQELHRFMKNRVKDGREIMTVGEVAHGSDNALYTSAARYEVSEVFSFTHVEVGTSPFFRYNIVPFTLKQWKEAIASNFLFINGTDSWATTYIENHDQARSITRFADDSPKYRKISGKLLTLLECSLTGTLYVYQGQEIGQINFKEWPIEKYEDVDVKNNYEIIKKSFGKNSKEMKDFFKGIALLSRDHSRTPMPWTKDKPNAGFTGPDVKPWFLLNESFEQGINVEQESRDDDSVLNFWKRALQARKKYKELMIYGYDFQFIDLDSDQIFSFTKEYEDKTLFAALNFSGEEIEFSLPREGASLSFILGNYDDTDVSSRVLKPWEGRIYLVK
- test protocol: Alpha-glucosidase inhibition assay
- condition: Alpha-glucosidase inhibition IC50, isolated compounds; acarbose positive control
property label: IC50 (µM)

[1] COC(=O)c1cc(O)c(O)c(OC(=O)c2cc(O)c(O)c(O)c2)c1 [BM3, 3-O-galloylgallic acid methyl ester]
[2] COC(=O)c1cc(O)c(O)c(O)c1 [BM2, methyl gallate]
[3] C[C@H]1[C@H](C)CC[C@]2(C(=O)O)CC[C@]3(C)C(=CC[C@@H]4[C@@]5(C)CC[C@H](O)C(C)(C)[C@@H]5CC[C@]43C)[C@H]12 [TS1, ursolic acid]
Sort the compounds on IC50; start with the lowest figure. Use the labels to give the requested order. 1, 3, 2

---

- target under test: alpha-glucosidase (Saccharomyces cerevisiae, UniProt P53341)
- Sequence (P53341 whole entry): as above
property label: Ki (µM)
Hi! Could you send only the number? It should be in µM, unit omitted.

Which measured Ki belongs to COC(=O)c1cc(O)c(O)c(OC(=O)c2cc(O)c(O)c(O)c2)c1 [BM3, 3-O-galloylgallic acid methyl ester] , tested on alpha-glucosidase (Saccharomyces cerevisiae, UniProt P53341)? 31.2
